As shown below, each of these molecules has a reported Intensity of fluorescence of the powder value.
Experiment: Intensity of fluorescence of the powder, Minolta luminance meter under 365 nm excitation
Format: physicochemical
Enter your answer as a number in cd/m^2; do not include the unit.

Worked cases, answers included:
[[record]]
mol = "O=C(Nc1ccccc1-c1nc2ccccc2c(=O)o1)NS(=O)(=O)c1ccc(Cl)cc1"
unit_abbreviation = "cd/m^2"
recorded_result = 330

[[record]]
mol = "O=C(Nc1ccccc1-c1nc2ccccc2c(=O)o1)NS(=O)(=O)c1ccccc1"
unit_abbreviation = "cd/m^2"
recorded_result = 320


Now consider the entry below.
**Query** Would you kindly share the measured Intensity of fluorescence of the powder for Cc1ccc(S(=O)(=O)NC(=O)Nc2ccccc2-c2nc3ccccc3c(=O)o2)cc1 ?
**Result** 350
